System: NCI-H460
Test: NCI tumour cell line growth inhibition, 48 h
Activity calls are given as the source filed them. No stated cut-off is given here; in the data, active = GI50 up to about 1.1 µM and inactive = higher.
metric: GI50

# compound, measured target, GI50
records = [
    ("O=C1c2scc(-c3ccc(Cl)cc3)c2-n2cccc21", "NCI-H460", "> 100 µM (inactive)"),
    ("Cc1cc([N+](=O)[O-])c(C)c2c1[nH]c1ccc(O)cc12", "NCI-H460", "> 100 µM (inactive)"),
    ("CN(C(=O)Cc1cc(Cl)c(Cl)cc1NC(=O)CN)[C@H]1CCCC[C@@H]1N1CCCC1", "NCI-H460", "29.6 µM (inactive)"),
    ("CC(=O)Oc1ccc(/C=C/C(=O)O[C@H]2CCCC[C@@H]2OC(=O)/C=C/c2ccc(OC(C)=O)c(OC(C)=O)c2)cc1OC(C)=O", "NCI-H460", "3.85 µM (inactive)"),
    ("COC(=O)C(CCCCN)NC(=O)C(CCCCN)NC(=O)C(CCCCN)NC(C)=O.Cc1ccc(C(=O)Nc2ccc(S(=O)(=O)O)c3cc(S(=O)(=O)O)cc(S(=O)(=O)O)c23)cc1NC(=O)c1cccc(NC(=O)Nc2cccc(C(=O)Nc3cc(C(=O)Nc4ccc(S(=O)(=O)O)c5cc(S(=O)(=O)O)cc(S(=O)(=O)O)c45)ccc3C)c2)c1", "NCI-H460", "48.9 µM (inactive)"),
]

Consider the compound O=[N+]([O-])c1ccc(Cl)c(C2CC(c3cccc4ccccc34)=Nc3ccccc3S2)c1 (stereo not drawn) . State its measured GI50.
26.5 µM (inactive)

Supply recorded GI50 for COc1ccccc1N1C(=O)/C(=C\c2cc(OC)c(OC)c(OC)c2)SC1c1ccccc1 (stereo not drawn) here.
51.5 µM (inactive)

Output measured GI50 for this item: COc1ccc(O)c(/C=N\Nc2ccccc2)c1
4.79 µM (inactive)

Let me know recorded GI50 for C=C1C(=O)OC2C1C(OC(=O)/C(=C/C)COC(C)=O)CC1(CO1)C1C(OC(=O)/C(=C/C)CO)C=C(C)C21 (stereo not drawn) , thanks.
6.98 µM (inactive)

Identify the reported GI50 for the following entry. C(=N\NC1=NCCN1)/c1ccc(-c2cn3cc(/C=N/NC4=NCCN4)ccc3n2)cc1
3.76 µM (inactive)

Look up and state reported GI50 for CCOC(=O)C12CCCC1(O)N(NC(N)=O)C(C)=C2C(=O)OC (stereo not drawn)
> 100 µM (inactive)

Annotate the compound N=C(N)N/N=C/c1c(-c2cc([N+](=O)[O-])c(Cl)cc2Cl)nc2n1CCS2 with its measured GI50.
27.6 µM (inactive)

Please indicate GI50 recorded for COc1c(Cl)c(Cl)c(OC)c2c1C(=O)C=CC2=O
37.8 µM (inactive)

---

Tested on: Hs-578T
Assay: NCI tumour cell line growth inhibition, 48 h
The source made the active and inactive calls. Rule as the data show it: active = GI50 up to about 1.1 µM and inactive = higher. Starred links: 1 amine or outer side, 2 acyl side, 3 side chain; linkers in the order of their positions; H or OH if unused. Non-standard residues stand in square brackets, D forms with d. Residues, ends and D or L forms follow the SMILES beside them. X35 = C=CCC(O[*:1])C(=O)[*:2]; NMeV = CN[CH](C(=O)O)C(C)C; NMeA = CN[CH](C)C(=O)O; βAla = NCCC(=O)O
Respond using exactly one of the listed classes: active, inactive

Illustrative cases are given below, each with its answer.
# molecule, assigned class
data = [
    ("COc1cc2cc(C(=O)N3CC(COS(C)(=O)=O)c4c3cc(N)c3ccccc43)[nH]c2c(OC)c1OC (stereo not given)", "active"),
    ("C=CCc1cc(C=C(C#N)C#N)cc(OC)c1O", "inactive"),
    ("CN1C(=O)[C@H](c2c[nH]c3ccccc23)[C@H](c2c[nH]c3ccccc23)C1=O", "inactive"),
    ("N#C/C(C(=S)Nc1ccccc1)=C(/N)N1CCCC1", "inactive"),
    ("S=C1CCSc2c(ccc3ccccc23)N1", "inactive"),
]

Hi, do you know how O=C1CCC2(CCO1)OCCO2 came out in this test?
inactive

In this assay, the call recorded for CC(=O)Nc1ccc2c(C(=O)O)c(C)c(O)nc2n1 was what?
inactive

Outcome? CC(C)(C)OC(=O)c1ccc(NCc2cc(O)ccc2O)cc1
inactive

Query: recorded result category for COc1ccc(/C=C/C(=O)c2nc3ccccc3[nH]2)cc1 in this test
inactive

Call for entry C=CCC1OC(=O)CCNC(=O)C(C)N(C)C(=O)C(C(C)C)N(C)C(=O)C(C(C)CC)NC(=O)C2CCCN2C1=O (stereo not given) (cyclo([X35]PI[NMeV][NMeA][βAla]); configuration not given here) :
inactive
